B1: HDV Ribozyme (parent)
chain: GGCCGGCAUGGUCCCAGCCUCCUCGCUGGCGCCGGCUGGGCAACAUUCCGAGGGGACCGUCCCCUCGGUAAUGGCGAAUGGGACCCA

Variants of: B1
Assay: self-cleavage, relative activity (ratio to wild type); higher = more cleavage; co-transcriptional
// label = 1 (yes) if self-cleavage is not less than 0.5, otherwise 0 (no)

Worked examples, 4 variants total:
U12G G68C = 1 (yes)
C4U G53U = 1 (yes)
C13A C19A = 0 (no)
C15A G34C = 0 (no)

INPUT: For this variant, is measured self-cleavage 0.5 or higher? C30A C58U
OUTPUT: 0 (no)

INPUT: For this variant, is measured self-cleavage 0.5 or higher? U69G A70U
OUTPUT: 1 (yes)

INPUT: For this variant, is measured self-cleavage 0.5 or higher? U27G A56G
OUTPUT: 1 (yes)

INPUT: For this variant, is measured self-cleavage 0.5 or higher? G10C C15U
OUTPUT: 1 (yes)

INPUT: For this variant, is measured self-cleavage 0.5 or higher? C4A U69C
OUTPUT: 0 (no)

INPUT: For this variant, is measured self-cleavage 0.5 or higher? U9G U37C
OUTPUT: 1 (yes)

INPUT: For this variant, is measured self-cleavage 0.5 or higher? A16U U69C
OUTPUT: 1 (yes)

INPUT: For this variant, is measured self-cleavage 0.5 or higher? G53C G76A
OUTPUT: 1 (yes)

INPUT: For this variant, is measured self-cleavage 0.5 or higher? C58U G80A
OUTPUT: 0 (no)

INPUT: For this variant, is measured self-cleavage 0.5 or higher? U60A C64U
OUTPUT: 1 (yes)

INPUT: For this variant, is measured self-cleavage 0.5 or higher? G17C C33U
OUTPUT: 0 (no)

INPUT: For this variant, is measured self-cleavage 0.5 or higher? C24U G73C
OUTPUT: 0 (no)

INPUT: For this variant, is measured self-cleavage 0.5 or higher? A43C C86U
OUTPUT: 1 (yes)

INPUT: For this variant, is measured self-cleavage 0.5 or higher? G17U G52U
OUTPUT: 1 (yes)

INPUT: For this variant, is measured self-cleavage 0.5 or higher? G6A A45C
OUTPUT: 0 (no)

INPUT: For this variant, is measured self-cleavage 0.5 or higher? C14U G67A
OUTPUT: 1 (yes)

INPUT: For this variant, is measured self-cleavage 0.5 or higher? U46G A56U
OUTPUT: 1 (yes)
